These data points were gathered from patent US6737383B1.

# Tested on: surinam grass
# test_details: Test B pre/postemergence surinam grass
# Assay type: in vivo, Brachiaria decumbens
# cond: Preemergence, Rate 250 g/ha; scale 0 to 10 (0 no effect, 10 complete control)
Classify: Satisfied when Plant response rating, B. signalgrass is strictly less than 8; Not satisfied when Plant response rating, B. signalgrass is not.

Use these answered entries as a reference point.
API: query returns whether the compound falls strictly under 8 in Plant response rating, B. signalgrass. Query: CC(C)N(C(=O)n1oc(=O)n(C(C)C)c1=O)c1ccc(Br)cc1
Not satisfied

API: query returns whether the compound falls strictly under 8 in Plant response rating, B. signalgrass. Query: COCCn1c(=O)on(C(=O)N(c2ccccc2)C(C)C)c1=O
Not satisfied

API: query returns whether the compound falls strictly under 8 in Plant response rating, B. signalgrass. Query: COC(=O)C(C)n1c(=O)on(C(=O)N(c2ccc(Cl)cc2)C(C)C)c1=O (centres unmarked)
Satisfied

Let's switch to this compound now.
API: query returns whether the compound falls strictly under 8 in Plant response rating, B. signalgrass. Query: C#CC(C=C(C)C)n1c(=O)on(C(=O)N(c2ccccc2)C(C)C)c1=O (centres unmarked)
Satisfied

----------
# System: rape
# test_details: Test B pre/postemergence rape
# Format: in vivo, Brassica napus
# cond: Preemergence, Rate 500 g/ha; scale of 0 to 10 where 0 is no effect and 10 is complete control
value_type: Rape plant response rating
API doc: respond with a numeric literal and nothing else, no unit.

Look up Rape plant response rating of CC(C)N(C(=O)n1oc(=O)n(CC2=NCCO2)c1=O)c1ccccc1 and report it.
0

Look up Rape plant response rating of CCN(CC)C(=O)n1oc(=O)n(-c2ccccc2C)c1=O and report it.
2

Look up Rape plant response rating of CC(C)N(C(=O)n1oc(=O)n(CCC(F)(F)F)c1=O)c1ccc(F)cc1F and report it.
4

Now look at this entry.
Look up Rape plant response rating of Cc1cccc(C(C)(C)C)c1-n1c(=O)on(C(=O)N(c2ccc(F)cc2)C(C)C)c1=O and report it.
0

----------
# Tested on: velvetleaf
# test_details: Test B pre/postemergence velvetleaf
# Format: in vivo, Abutilon theophrasti
# cond: Rate 250 g/ha, Postemergence; scale of 0 to 10 where 0 is no effect and 10 is complete control
We begin with a simple list: items and their reported Plant response rating, Velvetleaf.
API doc: respond with a numeric literal and nothing else, no unit.

Look up Plant response rating, Velvetleaf of Cc1ccccc1-n1c(=O)on(C(=O)N(c2ccc3c(c2)CCC3)C(C)C)c1=O and report it.
0

Look up Plant response rating, Velvetleaf of CC(C)N(C(=O)n1oc(=O)n(CCC(F)(F)F)c1=O)c1ccc(F)cc1F and report it.
3

Look up Plant response rating, Velvetleaf of CC(C)N(C(=O)n1oc(=O)n(C(C)C(=O)c2ccccc2)c1=O)c1ccccc1 (stereo not drawn) and report it.
0

Look up Plant response rating, Velvetleaf of CCOCn1c(=O)on(C(=O)N(c2ccc(F)cc2)C(C)C)c1=O and report it.
5

Look up Plant response rating, Velvetleaf of CC(C)N(C(=O)n1oc(=O)n(CCC(F)=C(F)F)c1=O)c1ccccc1 and report it.
5

Look up Plant response rating, Velvetleaf of CCC=CCn1c(=O)on(C(=O)N(c2ccc(Cl)cc2)C(C)C)c1=O and report it.
2
